target: PI3K (Homo sapiens, UniProt P48736); construct: PI3 Kinase γ IC50; other: PI3 Kinase γ; other: PI3 Kinase γ isoform, fluorescence polarization; assay: Fluorescence polarization assay for PI3K; format: biochemical; conditions: PI3 Kinase γ isoform, fluorescence polarization; read-out: PI3 Kinase γ IC50
Sequence (P48736 whole entry, canonical isoform): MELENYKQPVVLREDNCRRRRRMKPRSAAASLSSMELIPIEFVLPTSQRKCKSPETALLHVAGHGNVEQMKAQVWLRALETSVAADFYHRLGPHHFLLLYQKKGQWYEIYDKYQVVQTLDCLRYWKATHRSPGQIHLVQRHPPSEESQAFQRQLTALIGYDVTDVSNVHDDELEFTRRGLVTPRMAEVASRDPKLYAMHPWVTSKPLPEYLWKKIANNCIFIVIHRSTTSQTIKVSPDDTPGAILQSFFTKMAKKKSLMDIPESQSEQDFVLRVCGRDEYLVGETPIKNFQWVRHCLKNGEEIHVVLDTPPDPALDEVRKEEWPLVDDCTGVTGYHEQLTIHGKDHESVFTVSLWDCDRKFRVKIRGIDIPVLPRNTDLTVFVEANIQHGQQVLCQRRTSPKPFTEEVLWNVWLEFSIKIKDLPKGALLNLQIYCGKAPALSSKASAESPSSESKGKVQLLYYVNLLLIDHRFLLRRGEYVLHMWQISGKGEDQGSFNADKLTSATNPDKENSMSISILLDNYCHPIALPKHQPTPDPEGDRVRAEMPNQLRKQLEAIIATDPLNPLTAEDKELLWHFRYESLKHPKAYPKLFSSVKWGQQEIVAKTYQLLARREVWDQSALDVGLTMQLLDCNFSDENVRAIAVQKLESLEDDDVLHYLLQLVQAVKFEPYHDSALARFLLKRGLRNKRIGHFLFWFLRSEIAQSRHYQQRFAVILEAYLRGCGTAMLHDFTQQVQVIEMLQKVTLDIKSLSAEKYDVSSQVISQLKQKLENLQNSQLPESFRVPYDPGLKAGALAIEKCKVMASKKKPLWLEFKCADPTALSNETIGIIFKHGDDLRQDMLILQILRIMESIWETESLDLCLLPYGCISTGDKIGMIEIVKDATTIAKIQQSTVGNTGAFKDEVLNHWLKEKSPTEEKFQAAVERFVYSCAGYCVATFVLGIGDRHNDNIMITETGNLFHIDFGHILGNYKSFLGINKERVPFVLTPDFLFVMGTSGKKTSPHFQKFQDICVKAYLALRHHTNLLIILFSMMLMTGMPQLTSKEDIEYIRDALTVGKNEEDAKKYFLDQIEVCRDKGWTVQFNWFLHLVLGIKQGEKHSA
Give measured IC50 for each item. Keep answers brief.
Number in µM, nothing else.

Record O=C(Nc1ccc(-c2nc(N3CC4CCC(C3)O4)c3cnn(CC(F)(F)F)c3n2)cc1)NC1CC1 [Example 395] , field IC50: 8

Form: compound = CNC(=O)Nc1ccc(-c2nc(N3CC4CCC(C3)O4)c3cnn(C4CCC(NCCO)CC4)c3n2)cc1 (stereo not drawn) [Example 334] ; IC50 = 3.94

Quick note, IC50 for CN(C)CCOc1ccc(NC(=O)Nc2ccc(-c3nc(N4C[C@@H]5C[C@H]4CO5)c4cnn(CC(F)(F)F)c4n3)cc2)cc1 [Example 300] landed at 5.28

Sample CCn1nc(Br)c2c(N3CC4CCC(C3)O4)nc(-c3ccc(NC(=O)NC)cc3)nc21 [Example 397] ; IC50 observed: 5.63

IC50 recorded for this compound, COCC(COC)n1ncc2c(N3CC4CCC(C3)O4)nc(-c3ccc(NC(=O)Nc4ccc(N5CCN(C)CC5)cc4)cc3)nc21 [Example 327] , is 3.49

Entry CNC(=O)Nc1ccc(-c2nc(N3CC4CCC(C3)O4)c3cnn([C@H]4CC[C@@H](OC)CC4)c3n2)cc1 (relative stereo) [Example 387] ; IC50 = 0.404

Briefly, IC50 measured for COCC(COC)n1ncc2c(N3CC4CCC(C3)O4)nc(-c3ccc(NC(=O)Nc4ccccc4)cc3)nc21 [Example 324] : 5.21

Entry CCn1nc(C=O)c2c(N3CC4CCC(C3)O4)nc(-c3ccc(NC(=O)NC)cc3)nc21 [Example 352] ; IC50 = 6.1
